Experiment: Hemolytic activity in human red blood cells at 100 ug/ml incubated for 45 mins
Assay type: ADME, cell-based, Erythrocyte
Details: red blood cells (erythrocytes), at 100 µg/mL, read-out: Activity
Residues, ends and D or L forms follow the SMILES beside them.

- molecule: "CC(C)C[C@H](NC(=O)[C@@H](N)CCCNC(=N)N)C(=O)N1CCC[C@H]1C(=O)N[C@@H](Cc1c[nH]c2ccccc12)C(=O)N[C@@H](CCCNC(=N)N)C(=O)N[C@@H](Cc1c[nH]c2ccccc12)C(=O)N1CCC[C@H]1C(=O)N[C@@H](CCCNC(=N)N)C(=O)N[C@@H](CCCNC(=N)N)C(=O)N1CCC[C@H]1C(=O)N[C@@H](Cc1c[nH]c2ccccc12)C(=O)N[C@@H](CCCNC(=N)N)C(=O)N[C@@H](CCCNC(=N)N)C(=O)O (H-RLPWRWPRRPWRR-OH)"
  hemolysis at 0.75 h, 100 ug/ml: "< 15%"
